Please provide measured recombinant UMI read abundance (log10) for the entries that follow.
test: recombinant UMI read abundance after kanamycin selection (control-corrected) (log10(CPM+1)); higher = more efficient recombination; extreme values may be limits of the assay; sequences stand for … in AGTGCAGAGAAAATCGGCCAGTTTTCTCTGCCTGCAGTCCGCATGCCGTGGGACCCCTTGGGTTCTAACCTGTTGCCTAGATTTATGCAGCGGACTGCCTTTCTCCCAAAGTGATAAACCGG…AGGTTGGTTTCACT; site = the 11-nt donor
Answers are plain numbers.

Field: example entries. Status: answers known.
CTCGAATCATGGACCGGTTTTCCCGGTAATCCGTATTTGAA (site CTCGAATCTTT) :: 1.86
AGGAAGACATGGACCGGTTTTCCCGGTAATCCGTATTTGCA (site AGCAATACTTG) :: 0
GAGCTCACATGGACCGGTTTTCCCGGTAATCCGTATTTGTT (site GAGCTCACTAT) :: 1.08
AAATAACCATGGACCGGTTTTCCCGGTAATCCGTATTTGAA (site AAATAACCTTT) :: 0

We next turn to a different sequence, shown below.
Looking up ATGCAGGCATGGACCGGTTTTCCCGGTAATCCGTATTTGGC (site ATGAAGGCTGC) , I see its recombinant UMI read abundance (log10) listed as 0

###

test: recombinant barcode read abundance after kanamycin selection (control-corrected) (log10(CPM+1)); higher = more efficient recombination; sequences stand for … in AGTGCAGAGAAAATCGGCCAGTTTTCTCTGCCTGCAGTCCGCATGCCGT…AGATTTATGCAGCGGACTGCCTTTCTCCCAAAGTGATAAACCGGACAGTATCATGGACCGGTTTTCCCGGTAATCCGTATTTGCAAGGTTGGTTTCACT; site = the 11-nt target
Please assign a class to every record based on measured recombinant barcode read abundance (log10), with ranges low end: < 0.2; middle: ≥ 0.2 and < 0.7; high end: ≥ 0.7

Consider the worked cases shown below.
TATGTAGCTTGGGTTCTAACCTGTTGCCC (site TATGTAGCTTG) :: middle
GGGTCCACTTGGGTTCTAACCTGTTGCGT (site GGGTCCACTAT) :: high end
TGTCAATCTTGGGTTCTAACCTGTTGCGT (site TGTCGATCTAG) :: low end
GACTCTCCTTGGGTTCTAACCTGTTGCCT (site GACTCTCCTAA) :: middle
TAGTGATCTTGGGTTCTAACCTGTTGCCT (site TACTGATCTAG) :: low end

Ask: Which recombinant barcode read abundance (log10) band matches GAGTCTACTTGGGTTCTAACCTGTTGCCG (site GAGTCTACTCT) ?
Result: low end

Ask: Given GGGCACTCTTGGGTTCTAACCTGTTGCGT (site GGGCACTCTAT) , name the class its recombinant barcode read abundance (log10) places it in.
Result: high end

Ask: Exam item: assign AGGCGCCCTTGGGTTCTAACCTGTTGCAC (site AGGCGCCCTCT) to the correct category.
Result: low end

Ask: Hi, small favor: classify GACAGCCCTTGGGTTCTAACCTGTTGCTG (site GACAGCCCTCA) by its recombinant barcode read abundance (log10) when you get a moment.
Result: high end

Ask: # classify by recombinant barcode read abundance (log10) band: CAGACGACTTGGGTTCTAACCTGTTGCCA (site TGCTGTCCTAA)
Result: low end

Ask: Bin this entry: ACTAGAACTTGGGTTCTAACCTGTTGCAA (site ACTAGGACTCT)
Result: low end

Ask: Record CTACAATCTTGGGTTCTAACCTGTTGCTT (site CTACAATCTAT) — which class?
Result: high end

Ask: Dear colleague, I would appreciate it if you could identify the bin for TCGTGCTCTTGGGTTCTAACCTGTTGCCT (site TCGTGCGCTAG) and reply at your convenience.
Result: low end

Ask: Lab note: sort TGCCACCCTTGGGTTCTAACCTGTTGCGT (site TACTACCCTAC) into the matching recombinant barcode read abundance (log10) band.
Result: low end

Ask: Sort into band: TCGCTAGCTTGGGTTCTAACCTGTTGCGG (site TCGCTAGCTCC)
Result: middle

Ask: Kindly identify the class of TAACCTGCTTGGGTTCTAACCTGTTGCCT (site TAACCTTCTAG) .
Result: middle

Ask: Field: class (recombinant barcode read abundance (log10)) — entry: ATTCCATCTTGGGTTCTAACCTGTTGCCT (site ATACCATCTAG)
Result: middle

Ask: Class label required: CCGGAGCCTTGGGTTCTAACCTGTTGCCT (site CCGGAGCCTAG)
Result: high end

Recorded values, source the supplement of paper PMC11208160.
